Source listed as PubChem BioAssay (Tox21).

experiment: qHTS assay to identify small molecule agonists of the androgen receptor (AR) signaling pathway in the presence of an antagonist - cell viability counter screen (AID 1259379); details: MDA-kb2 viability, CellTiter-Fluor, 16 h; series mostly up to 92.4 µM; also: nearly all actives have a fitted effect of over 25% in size
Records with an inconclusive call do not appear. The source made the active and inactive calls. Calls follow the shape of the dose curve; as a rule, active = well fitted cell-killing curve with a large enough effect in the repeat runs; inconclusive = weak or mixed curves, or effect the other way; inactive = flat fitted curve, though single readings scatter.
Reply using exactly one outcome from active, inactive

Record excerpt, results attached:
{"compound": "CC(=O)c1cc2ccccc2s1", "assigned-label": "inactive"}
{"compound": "Nc1nnc(-c2ccc([N+](=O)[O-])o2)o1", "assigned-label": "active"}
{"compound": "Cc1ccco1", "assigned-label": "inactive"}
{"compound": "Cc1cc(=O)c2c(O)c3c(O)cc(=O)c4c3c3c(cc(O)c1c23)C(C)(C)C=4O", "assigned-label": "active"}
{"compound": "CCCCCCNC(=O)n1cc(F)c(=O)[nH]c1=O", "assigned-label": "inactive"}

Task: Which outcome did this test record for the compound `CC1=C(CC=O)C(C)(C)CCC1` ?
Result: inactive

Task: Which outcome did this test record for the compound `COC(=O)C1=C(C)NC(C)=C(C(=O)O[C@@H]2CCCN(Cc3ccccc3)C2)[C@@H]1c1cccc([N+](=O)[O-])c1` ?
Result: inactive

Task: Which outcome did this test record for the compound `O=C(O)c1cccc(-c2noc(-c3ccccc3F)n2)c1` ?
Result: inactive

Task: Which outcome did this test record for the compound `COc1cc(Nc2c(C#N)cnc3cc(OCCCN4CCN(C)CC4)c(OC)cc23)c(Cl)cc1Cl` ?
Result: active

Task: Which outcome did this test record for the compound CCC1NC(=O)c2cc(S(N)(=O)=O)c(Cl)cc2N1 (stereo not drawn) ?
Result: inactive

Task: Which outcome did this test record for the compound `O=C(/C=C/c1ccccc1)OCCc1ccccc1` ?
Result: inactive

Task: Which outcome did this test record for the compound `CC(=O)OCC(=O)NCCCOc1cccc(CN2CCCCC2)c1` ?
Result: inactive
